Tested on: Propionibacterium acnes (ATCC 6919)
Experiment: ΣFIC assay against P. acnes
Format: cell-based
Details: honokiol + AML
Quantity: The range of ratio of honokiol/AML (w/w) where ΣFIC was less than 0.9

Please report The range of ratio of honokiol/AML (w/w) where ΣFIC was less than 0.9 for every entry that follows.
1. CCCCCCCCCCCCCCC[C@@H](O)[C@@H](N)CO [dihydrosphingosine, D-erythro-Dihydrosphingosine]
2. CCCCCC/C=C\CCCCCCCC(=O)O [palmitoleic acid, Palmitoleic acid]
3. CCCCCCCCCCCCC/C=C/[C@@H](O)[C@@H](N)CO [sphingosine, D-Sphingosine]
4. CCCCCCCCC/C=C\CCCCC(=O)O [sapienic acid, Sapienic acid]

**Result**
1. 0.2 to 6.5 w/w
2. 0.06 to 1 w/w
3. 0.7 to 13 w/w
4. 0.25 to 1 w/w

**Query** Please give the measured The range of ratio of honokiol/AML (w/w) where ΣFIC was less than 0.9 for this compound: CCCCCCCCCCCCCC[C@@H](O)[C@@H](O)[C@@H](N)CO [phytosphingosine, Phytosphingosine]
**Result** 0.2 to 3.2 w/w
